# target entity: HIV-1 Env of isolate 92WR009 (pseudovirus) (HIV-1)
# assay procedure: cell-based or functional assay
property: IC50 (µg/mL), pseudovirus neutralization
Reply numerically in µg/mL, unit not repeated.

>  <binder>
PGT-123 (4858_P08) (antibody, V domains shown) VH: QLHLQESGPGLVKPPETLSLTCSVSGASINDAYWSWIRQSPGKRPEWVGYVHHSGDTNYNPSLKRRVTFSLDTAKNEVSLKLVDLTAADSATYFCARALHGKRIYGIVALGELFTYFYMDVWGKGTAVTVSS VL: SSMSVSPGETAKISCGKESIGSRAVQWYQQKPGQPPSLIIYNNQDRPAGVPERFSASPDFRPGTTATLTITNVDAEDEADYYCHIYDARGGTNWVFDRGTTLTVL

>  <recorded value>
15.7

$$$$

Now examine the next entry.
Q: Given the entry PGT-125 (5123_A06) (antibody, V domains shown) VH: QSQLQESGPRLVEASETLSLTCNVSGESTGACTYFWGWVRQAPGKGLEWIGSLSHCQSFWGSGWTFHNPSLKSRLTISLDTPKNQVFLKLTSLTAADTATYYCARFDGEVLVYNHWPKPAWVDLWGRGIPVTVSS VL: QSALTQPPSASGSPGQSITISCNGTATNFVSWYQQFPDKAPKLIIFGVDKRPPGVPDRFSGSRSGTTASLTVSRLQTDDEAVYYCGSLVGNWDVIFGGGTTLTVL , report its measured IC50 (µg/mL), pseudovirus neutralization.
Result: 0.144
